test system: Phytophthora infestans; experiment: whole plant or invertebrate; assay type: in vivo; conditions: 250 ppm; tomato seedlings; 100 = 100% disease control, 0 = no control
Reported Test D disease control rating values are given for each entry in this list.
The reply should contain only the number, in %.

These solved cases illustrate the format of a correct answer.
| ENTRY SMILES | Test D disease control rating, % |
| --- | --- |
| Cn1ncc(OS(C)(=O)=O)c(C(=O)Nc2ccccc2-c2cc(F)c(F)c(F)c2)c1=O | 0 |
| COc1ccc(NC(=O)c2c(O)cnn(C)c2=O)cc1 | 68 |
| Cn1ncc(O)c(C(=O)Nc2ncc(Cl)cn2)c1=O | 0 |

Okay, now this compound:
Return reported Test D disease control rating; argument: `CCCC[N+](CCCC)(CCCC)CCCC.Cn1ncc([O-])c(C(=O)Nc2ccc(S(F)(F)(F)(F)F)cc2)c1=O`
70

---

tested on: Erysiphe graminis f. sp. tritici; test: Test G: preventive spray on wheat seedlings, wheat powdery mildew, visual disease rating; assay type: in vivo; conditions: Blumeria graminis, 192 h, 250 ppm, 100 = 100% disease control, 0 = no control
RECORDED METRIC: pest or weed control at 250 ppm (%)
The reply should contain only the number, in %.

| MOLECULE | MEASURE UNIT | pest or weed control at 250 ppm |
| --- | --- | --- |
| Cn1ncc2oc(=O)n(-c3ccc(OC(F)(F)F)cc3)c(=O)c2c1=O [Compound 89] | % | 61 |
| Cn1ncc(OS(C)(=O)=O)c(C(=O)Nc2ccc(C#N)cc2)c1=O [Compound 98] | % | 0 |
| Cn1ncc(O)c(C(=O)Nc2ccc(C(F)(F)F)cc2F)c1=O [Compound 50] | % | 98 |
| Cn1ncc(OS(C)(=O)=O)c(C(=O)Nc2ccc(S(F)(F)(F)(F)F)cc2)c1=O [Compound 99] | % | 83 |
| Cn1ncc(O)c(C(=O)Nc2ccc(OC(F)F)cc2)c1=O [Compound 47] | % | 0 |
| Cn1ncc(O)c(C(=O)Nc2ccc(OC(F)(F)F)cc2)c1=O [Compound 21] | % | 98 |
| Cn1ncc(OS(C)(=O)=O)c(C(=O)Nc2ccc(OC(F)F)cc2)c1=O [Compound 97] | % | 91 |
| Cn1ncc(O)c(C(=O)Nc2ccc(S(F)(F)(F)(F)F)cc2)c1=O [Compound 91] | % | 89 |
| Cn1ncc(Br)c(C(=O)Nc2ccc(OC(F)(F)F)cc2)c1=O [Compound 42] | % | 0 |
| Cn1ncc(Cl)c(C(=O)Nc2ccc(OC(F)(F)F)cc2)c1=O [Compound 41] | % | 0 |

Return reported pest or weed control at 250 ppm; argument: Cn1ncc(O)c(C(=O)Nc2ccc(C(F)(F)F)cc2)c1=O [Compound 2]
97

Follow-up entry: Cn1ncc(OS(C)(=O)=O)c(C(=O)Nc2ccc(C(F)(F)F)cc2)c1=O [Compound 96]
84

---

test system: Phytophthora infestans; assay: whole plant or invertebrate; assay type: in vivo; conditions: 250 ppm; tomato seedlings; 100 = 100% disease control, 0 = no control
RECORDED METRIC: Test D disease control rating (%)
The reply should contain only the number, in %.

These solved cases illustrate the format of a correct answer.
| ENTRY SMILES | Test D disease control rating (%) |
| --- | --- |
| Cn1ncc(O)c(C(=O)Nc2ccc(OC(F)(F)F)cc2Cl)c1=O | 92 |
| Cn1ncc(O)c(C(=O)Nc2ccc(Cl)nc2)c1=O | 88 |
| Cn1ncc(OS(C)(=O)=O)c(C(=O)Nc2ccc(OC(F)(F)F)cc2)c1=O | 78 |
| O=C(Nc1ccc(OC(F)(F)F)cc1)c1c(O)cnn(-c2ccccc2)c1=O | 88 |

Return reported Test D disease control rating; argument: `Cn1ncc(OS(C)(=O)=O)c(C(=O)Nc2ccc(C(F)(F)F)nc2)c1=O`
0

Follow-up entry: `CCCC(=O)Oc1cnn(C)c(=O)c1C(=O)N(C(=O)CCC)c1ccc(OC(F)(F)F)cc1`
0
